System: NCI/ADR-RES ovarian
Protocol description: NCI-60 one-dose screen, 48 h (100 = growth as untreated, 0 = no growth, -100 = all killed)
Condition parameters: 10 µM unless noted
About 83,000 compounds went through this panel and 20% of them were active in at least one assay; those are over-represented in the sample as a whole.
Metric: growth (%)

Compound	Obs value
NS(=O)(=O)c1ccc(NC2=C(Cl)C(=O)c3ccccc3C2=O)cc1	93.6
NC(=Nc1ccccc1)SCCCCSC(N)=Nc1ccccc1	66.3
Cc1cc(O)c2c(c1)C[C@H]1[C@@H]3CC[C@H]4CC(=O)CC[C@]4(C)[C@H]3CC(=O)[C@]21C	83.8
COc1cc2c(cc1OCCCCCn1c(-c3ccc(OCc4ccccc4)cc3)nc3cc(N4CCOCC4)ccc31)N=C[C@@H]1CCCN1C2=O	23.8
CCC(=O)Nc1ccccc1C#C/C=C\C#Cc1ccccc1C(F)(F)F	27.2
Cc1cc([N+](=O)[O-])c(C)cc1C(=O)O	103
Nc1ncc(-c2cnn(C3CCNCC3)c2)cc1-c1nc2cc(Cl)ccc2o1	-50.5
O=c1cc(-c2cccnc2)oc2c1ccc1ccccc12	75.3
CSc1nc2c(c(=O)n1C)C(c1ccccc1)C1=C(N2)/C(=C/c2ccccc2)CCC1 (stereo not given)	38.3
CCOc1cccc(C2CC(=O)Nc3cc4c(cc32)OCO4)c1 (stereo not given)	82.3
Oc1[nH]c2ccccc2c1/C=c1/ccc2c(c1)N=C(c1cc(F)cc(F)c1)N=2	61.4
OCCOc1c(Cl)cc(Cl)cc1Cl	102
S=C1SCN(Cc2ccccc2)CN1Cc1ccco1	99.2
C=CCCCCCCCCC(=O)[O][Sn]([CH2]CCC)([CH2]CCC)[CH2]CCC	-90.3
CCCn1cnc2c1c(=O)n(CCCCC(C)=O)c(=O)n2C	108
CC(=O)O[C@H]1C(=O)[C@@]2(C)C([C@H](OC(=O)c3ccccc3)[C@]3(O)C[C@H](OC(=O)[C@H](O)[C@@H](NC(=O)c4ccccc4)c4ccccc4)C(C)=C1C3(C)C)[C@]1(OC(C)=O)CO[C@@H]1C[C@@H]2O (stereo not given in full)	43.9
C[N+]1(CCC[N+]2(C)C[C@@H]3[C@H](C2)[C@@H]2C=C[C@H]3C2)CCOCC1 (stereo not given in full)	107
c1ccc(-n2nnnc2-c2cccc3ccccc23)cc1	-12.6
CCOC(=O)c1cc(-c2cccnc2)nc2c(Cl)cc(Cl)cc12	94
CC[N+](CC)(CCOCCOCC[N+](CC)(CC)Cc1ccc([N+](=O)[O-])cc1)Cc1ccc([N+](=O)[O-])cc1	98.9
COc1ccc(-c2csc(NC(=O)c3cc(O)c(O)c(O)c3)n2)cc1	62.2
COC(=O)[C@]12CC[C@@H](C)[C@H](C)[C@@H]1C1=CC[C@@H]3[C@@]4(C)C[C@@H](OC(=O)c5ccco5)[C@H](O)[C@@](C)(CO)[C@@H]4[C@H](O)C[C@@]3(C)[C@]1(C)CC2	-80.6
COc1cc(/C=C2\COc3ccc(O)cc3C2=O)cc(OC)c1	65.8
O=C1c2nsnc2C(=O)c2c(F)c(F)c(F)c(F)c21	-17.1
Cc1cc(C)n(C(=O)c2nn(-c3ccc(Cl)cc3)cc2O)n1	22.6
O=[P@@]1(c2ccccc2)O[C@H](COCc2ccccc2)[C@@H](OCc2ccccc2)[C@H](OCc2ccccc2)[C@H]1NCc1ccccc1	12.5
COc1ccc(Cn2cc3c(c2-c2ccccc2)CCc2cncnc2-3)cc1	12.3
O=C(/C=C/c1cccnc1)/C=C/c1cccnc1	32.2
N#Cc1cnc2cc(OC[C@H](O)CO)c(NC(=O)CC3CSSC3)cc2c1Nc1ccc(OCc2cccc(F)c2)c(Cl)c1	87.8
COc1ccc2c(c1)nc(N)c1c3cc(OC)c(OC)cc3cn21	33.9
N#Cc1c(N)[nH]c(S)c1C#N	116
NC(N)=N/N=C(/c1ccccc1)c1ccc(Cl)cc1	82.6
C=Cc1nn2c(CCC(=O)c3nc4ccccc4[nH]3)nnc2s1	100
Cc1nc(N)[nH]c(=O)c1C	91
COc1cc(C2NC(c3ccc(Cl)cc3)C(C)C(=NC(=O)c3cnccn3)C2C)cc(OC)c1OC (stereo not given)	101
Clc1cccc(Cc2cn3cc(-c4ccccc4)nc3s2)c1	60.2
COc1ccc2c(c1)C(=O)c1c-2c(=O)n(CCCCCCC(=O)NO)c2ccccc12	-14.1
COc1c(O)cc2oc3cc(O)c(CC=C(C)C)c(O)c3c(=O)c2c1C/C=C(\C)CCC=C(C)C	-39
COc1cc(C2=NN(C(C)=O)C(c3ccc(OC(C)=O)cc3OC(C)=O)O2)c(OC(C)=O)c2ccccc12 (stereo not given)	11.7
CCC(C)CC(C)C(=O)c1c(O)ccn(O)c1=O (stereo not given)	4.73
